System: UO-31 renal
Test: NCI-60 one-dose screen, 48 h (100 = growth as untreated, 0 = no growth, -100 = all killed)
Conditions: 10 µM unless noted
Experimental: Growth inhibition of the UO-31 human tumor cell line is measured as a screen for anti-cancer activity. Cells are grown in 96 well plates and exposed to the test compound for 48 hours. Compounds are tested at a single concentration, which is 10^-5 M for most compounds. The reported endpoint is percent growth (GI% or GIPRCNT), where numbers from 0 - 100% represent growth inhibition, and numbers from -100% - 0 represent cell death. For example, a value of 40 represents 60% growth inhibition. […]
The panel holds about 83,000 compounds, 20% with a hit somewhere; the sample as a whole holds those more often.
Kindly return Condition met if reported growth is no lower than 60%; return Condition not met if it is lower.

The following compounds have reported results that may help.
- COMPOUND: "Cc1[nH]c(C(=O)Nc2ccc(C(=O)NCC3CCNCC3)cc2OC(C)C)c(Cl)c1Cl"
  TARGET SYSTEM: "UO-31 renal"
  ASSIGNED CATEGORY: "Condition met"
- COMPOUND: "CN1CCN(Cc2ccc(NC(=O)c3cncc(C#Cc4cnc5ccc(OCC6COC6)nn45)c3)cc2C(F)(F)F)CC1"
  TARGET SYSTEM: "UO-31 renal"
  ASSIGNED CATEGORY: "Condition not met"
- COMPOUND: "CNc1sc(S(=O)(=O)NC)nc1S(=O)(=O)c1ccc(C)cc1"
  TARGET SYSTEM: "UO-31 renal"
  ASSIGNED CATEGORY: "Condition met"

Prompt line: I'd appreciate it if you could say whether C#CCOc1ccccc1C(OC(=O)c1ccccc1)C(=O)NC(C)(C)C(C)(C)C (stereo not given) has growth at least equal to 60%.
Response line: Condition met

Prompt line: I'd appreciate it if you could say whether `O=C(CCCCCCNC(=O)C(O)(O)C(F)(F)F)Nc1ncc(-c2ccccc2)s1` has growth at least equal to 60%.
Response line: Condition not met

---

Tested on: BT-549 breast
Assay: NCI-60 one-dose screen, 48 h
Details: 10 µM unless noted
This is part of a sample that, as a whole, favours compounds with a hit. Of some 83,000 tested, about 20% had one in any assay. The source made the active and inactive calls. The calls were made as follows: active = growth percent below 10; inactive = the rest.
Write down one outcome, taken from t = active, f = inactive

The following compounds have reported results that may help.
- COMPOUND: "CC(C)(O)c1cncc(-c2ccc3ncc(C#N)c(N4CCc5cc(F)c(Cl)cc54)c3c2)c1"
  TARGET SYSTEM: "BT-549 breast"
  ASSIGNED CATEGORY: "t"
- COMPOUND: "CCCCCN1C(=O)/C(=c2\\sc3n(c2=O)C2C(NN=3)N(CC)C(=O)N2CC)c2cccc(C)c21 (stereo not drawn)"
  TARGET SYSTEM: "BT-549 breast"
  ASSIGNED CATEGORY: "f"
- COMPOUND: "CNC(=O)c1cc(-c2ccc(NC(=S)Nc3cccc(C(F)(F)F)c3)cc2)nc2cccnc12"
  TARGET SYSTEM: "BT-549 breast"
  ASSIGNED CATEGORY: "f"
- COMPOUND: "Cc1ccc(NC2=C(Cl)C(=O)c3nc(C)ccc3C2=O)c(C)c1"
  TARGET SYSTEM: "BT-549 breast"
  ASSIGNED CATEGORY: "f"
- COMPOUND: "CCN1CCN(c2ccc(NC(=O)Nc3ccc4c(ccn4-c4ccnc(C(=O)NC)c4)c3)cc2C(F)(F)F)CC1"
  TARGET SYSTEM: "BT-549 breast"
  ASSIGNED CATEGORY: "f"

Prompt line: Could you please tell me the result logged for `O=C1[C@H]2Cc3c([nH]c4ccccc34)[C@H](c3ccc(Br)cc3)N2C(=O)CN1C1CCN(CC2CCCCC2)CC1` in this assay?
Response line: f

Prompt line: Could you please tell me the result logged for `O=C(NNc1nc2cc(F)cc(F)c2n2cccc12)c1cccnn1` in this assay?
Response line: f

Prompt line: Could you please tell me the result logged for `C#C[C@]1(O)CC[C@H]2[C@@H]3CC=C4c5sc(N(C)c6ccccc6)nc5CC[C@]4(C)[C@H]3CC[C@@]21C` in this assay?
Response line: f
